Taken from the supplement of paper PMC12764529.

test: folding stability dG unfold from chymotrypsin proteolysis; higher = more stable
Measure: folding stability dG unfold (kcal/mol)
Answer with a number only, understood to be in kcal/mol.

>>> df
                             entry_sequence                      measure  assay_result
0  SAGGSAGLPEAIAEAIARELQAEPGYELDVEAEVDPETGTLHIRARVRLPDDDTWFELEITVPLPASAGGSA [r15_464_TrMRF]  folding stability dG unfold          3.22
1  SAGGKKPERVKITIMIPFDDPDKLRNFLRNHGFKVDEVEPNKEGMLAVEFEFPGYEIEIIIMDPGAMSAGGS [r16_170_TrROS]  folding stability dG unfold          3.74
2  SAGGSAGGSAGGSAELLEVLEVTKTGSGYTVKVLERSPELGPSVRTESFPADDTSVLLLSAGGSAGGSAGGS [r4_253_JUSTAS]  folding stability dG unfold        -0.384

Turning to the following sequence.
Prompt line: Entry SAGGSIRIYANNVEITDIEIGDDGYIEIKVRMRGPNGQPQEFTLMIRVVPPPPPPKVDPNDPDAKDSAGGSA [r2_368_TrROS] has what folding stability dG unfold?
Response line: 3.5

* * *

assay: folding stability dG unfold from trypsin proteolysis; higher = more stable
// False strictly below 3 kcal/mol in folding stability dG unfold; True otherwise

Consider the worked cases shown below.
>>> print(df.to_string())
                             entry_sequence  assigned_class
0  SAGGSAGGSAGGSVWIRMPPSKIKDLLDKFGIEPIEIEKMPPGWVYIRITPDALKEAGVFSAGGSAGGSAGG [r7_587_TrROS]           False
1  SAGGSAGGSIFIHWTYEMEHERDPDDPDEPRMKMKIKDWVISIPEDDPDKLKELADKLGIPIISAGGSAGGS [r12_249_TrROS]           False
2  SAGGSAKKVVLLTIPPSANLPPNSKLVVKFPNGKEKTYKFNDKPVVILLVTDNNGNFSFGVSVEDKSAGGSA [r15_992_TrMRF]           False
3  SMPLTPEEVEEVVEAVAKELEEETGEEVKAEVFYDPETGRFYAVIELPDGRRVRIEIDPETGEVRVEVEASA [r9_9_TrMRF]            True
4  SAGGSAGGSAGNVEEIADQLKPNGYKISTVEPTDDQVEVEIYNPESKEPRKFRIPPNQPISAGGSAGGSAGG [r11_428_TrROS]           False
5  SAGGSAGGDPGDDYKIGVFPFTFLFGGYRISIPIFRITKDGKPQHIFMAIEIEPLPPPKDPGDNSAGGSAGG [r6_684_TrROS]            True

Prompt line: Quick check: does SAGGSAGGSAGEKVKLVITTTVTLPALDPEGGEFVGPVTFTETIVLDMNPEDAARLLAAASAGGSAGGSAGG [r17_283_TrMRF] have folding stability dG unfold greater than or equal to 3 kcal/mol?
Response line: False

Prompt line: Field entry: SMTLPANAKAKVTVLVLFYDPETGEATLVKVDYTATFKPDDKGNLVVEVEPSKIEFIGPISLEEAKKIAGSA [r9_423_TrMRF]
Response line: False

Prompt line: Field entry: SAGGSAGGSATTVTVESDPATGTRFVYETDEKNPGLLKVTKVTTLPDGSVVVETGYISPEKLSAGGSAGGSA [r18_505_JUSTAS]
Response line: False

Prompt line: Field entry: SAGGSAGGMKVEVVFLVPGEVFSKFTPPLSEDDPVLLVLVFDVPAPPPVPRYVYDPETGEWRPESAGGSAGG [r6_211_TrMRF]
Response line: False

Prompt line: Field entry: SAGGSAGIEVHPEGTVRIEVGGRSLTVTPADAVDVTQEGDKIVVTITRRDADGTPVGTLPVTVELASAGGSA [r15_424_JUSTAS]
Response line: False

Prompt line: Field entry: SAGGSAMKKTITVTLSYPETGETRTVTVELTDIPESDPEKWKALAEEVAEALAKERGAEVLGIEISSAGGSA [r15_1013_JUSTAS]
Response line: True

Prompt line: Field entry: SAGGSAGGSAGMTLEIEVDPDNKVIELKIYIGGKPVEMTIVVTPNSGYIRIPDGGWIPIESAGGSAGGSAGG [r11_395_TrROS]
Response line: False

Prompt line: Field entry: SAGGSAGGSAPKPKTKTIMFRFPGTPEDALDIAKEIANYFNDRGLEIEVERHPNGYIMITFPSAGGSAGGSA [r18_262_TrROS]
Response line: False

Prompt line: Field entry: SAKIEINPEGGQIEMDYELNGKKVKITIQMPPENGMFPVKIEPPDLGKPIEVPYPFNSVDDMLDWAAEASAG [r14_803_TrROS]
Response line: False

Prompt line: Field entry: SAGGMRIWRVPETGVRAEVGTGGPWLVTITSSTTPVPEVRPVPPEEVEAFLRARFPGPVEEVERRPVPESAG [r5_519_JUSTAS]
Response line: False

Prompt line: Field entry: SAGGSAGGSAGKKVKISLILIAKSPEEAEEAAKAIKEAFGSEDVEVDIIEIPAKLGPGKLSAGGSAGGSAGG [r17_285_TrMRF]
Response line: False

Prompt line: Field entry: KKVKIEIEVEKVEDGYYVVRIKVKFEETEETIELELVFPKSLEEVLEKIKELLPEGQITEVEIEVYPLPEPS [r1_399_TrROS_Hall]
Response line: True

Prompt line: Field entry: SAGGSAGGSAGGPKVIEITNKDGSTFRLVEVDGELYLYNEKTGKVVKLPPGAKITIKKPSAGGSAGGSAGGS [r10_637_TrROS_Hall]
Response line: False

Prompt line: Field entry: SAGGSAGGSAGGLPPFDLGFESVEVEEVFPDGPVVVTVRLPDRTVRLVVVGGRIVRVEPSSAGGSAGGSAGG [r17_396_TrMRF]
Response line: False

Prompt line: Field entry: SAGGSAGGSAVRTIFIPGGNIKDIIELIKSDPGQPVQIHAPDGWVIKITGDKDIDIHPFPDSAGGSAGGSAG [r3_269_TrROS]
Response line: False

Prompt line: Field entry: SDKVEIWIPIPDGFWVRIKYDKPGKREITIWMPEDNPEFRKHGSMDQFIKHLARKLGLDPDKVKVDMYPMSA [r9_401_TrROS]
Response line: True

Prompt line: Field entry: SAGGKIKKGETVKIKIEIENKNGEKKTIELEVKKEDLEKLKELIEKLKEKGFKIKKIEIKVLKKEKKSAGGS [r8_497_TrROS_Hall]
Response line: False

Prompt line: Field entry: SAGGSAGGSARVFIVITYQNPGDGKPRQITIPIDIKDGKITLDDLKELFPGYPITNISIFPLSAGGSAGGSA [r18_494_TrROS]
Response line: True

Prompt line: Field entry: SAGGSAGGPNIRIIIKPDPENGTLKIWFVHPEPGRIQKYEFNMNGKWKIKEPVGPMKPGDPGLLSAGGSAGG [r6_149_TrROS]
Response line: False

Prompt line: Field entry: SAGGSAEIPPGAKLEIDEMSFDPGNGRIEMMFKIEDPDGEPLWQIRVSWEFNPENGKMKLDIEIMPSAGGSA [r15_1028_TrROS]
Response line: False
